Numbers sourced from ChEMBL document CHEMBL3286364.

# Test system: Mycobacterium tuberculosis
# Run description: Binding affinity to Mycobacterium tuberculosis EthR assessed as change in melting temperature at 20 uM by thermal shift assay
Listed here are compounds together with their documented ΔTm.
Give just the number in °C; leave the unit off.

Take a look at these entries with their results.
Cc1nc(-c2ccc(S(=O)(=O)NCCC(F)(F)F)cc2)cs1
8.5
Cc1nc(-c2ccc(S(=O)(=O)NCCCC(F)(F)F)cc2)cs1
6.6
CC(C)CCNS(=O)(=O)c1ccc(I)cc1
1.9

Query: Missing value: ΔTm, Mycobacterium tuberculosis, entry `Cc1nc(-c2ccc(S(=O)(=O)NCCC(C)C)cc2)cs1` . Fill in?
Reply: 6.1

Query: How about `CC(C)CCNS(=O)(=O)c1ccc(N2CCCC2=O)cc1` ?
Reply: 0.6

Query: How about `CCCS(=O)(=O)NCc1nc(-c2ccc(C(=O)NCCC(F)(F)F)cc2)cs1` ?
Reply: 6.6

Query: How about `COc1ccc(-c2ccc(S(=O)(=O)NCCC(C)C)cc2)cc1` ?
Reply: 3.7

Query: How about `CC(C)CCNS(=O)(=O)c1ccc(-c2cnco2)cc1` ?
Reply: 1.2

Query: How about `O=C(NCCC(F)(F)F)c1ccc(C#CCNS(=O)(=O)c2ccccc2)cc1` ?
Reply: 4.2

Query: How about `Cc1nc(-c2ccc(S(=O)(=O)NCC(F)(F)F)cc2)cs1` ?
Reply: 6.3

Query: How about `CC(C)CCNS(=O)(=O)c1ccc(-n2cccn2)cc1` ?
Reply: 1.9

Query: How about `CC(C)CCNS(=O)(=O)c1ccc(-c2ccc(F)cc2)cc1` ?
Reply: 2.2

Query: How about `Cc1nc(-c2ccc(S(=O)(=O)NCCC(C)(C)C)cc2)cs1` ?
Reply: 2.3

Query: How about `C#CCNS(=O)(=O)c1ccc(I)cc1` ?
Reply: 0.1

Query: How about `CCCCOc1ccc(S(=O)(=O)NCCC(C)C)cc1` ?
Reply: 3.6

Query: How about `CC(=O)Nc1ccc(-c2ccc(S(=O)(=O)NCCC(C)C)cc2)cc1` ?
Reply: 2

Query: How about `Cc1nc(-c2ccc(C(=O)NCCC(F)(F)F)cc2)cs1` ?
Reply: 11.2

Query: How about `CC(C)CCNS(=O)(=O)c1ccc(CCC(C)C)cc1` ?
Reply: 3.2

Query: How about `CCOC(=O)c1ccc(S(=O)(=O)NCCC(C)C)cc1` ?
Reply: 4.3
